Please go through the items and note down their MCP-1 level.
system: IL-1β, IL-6, IFN-γ, TNF-α, IL-8, MIP-1α, MCP-1, MIP-1β, RANTES; assay: Cytokine and chemokine assays in cynomolgus monkeys (Example 46); assay type: in vivo; conditions: day 55
Strand notation (5' to 3'): a small letter for the sugar, then the base; units joined by * are phosphorothioate-linked, units joined directly phosphodiester-linked; [ ] holds rarer units or linkages, { } end groups; capitals alone tell only the bases. e = 2'-O-(2-methoxyethyl) (MOE); [5mC] = 5-methylcytosine; d = 2'-deoxy (DNA)
The answer is to be given in pg/mL; state only the numeric part.

Reported MCP-1 level for ISIS 449710: 3-8-3, 4-8-4, 2-10-2, 3-10-3 or 4-10-4 MOE microwalk gapmer (Table 46) (antisense e[5mC]*eA*e[5mC]*dA*dG*dT*dT*dT*d[5mC]*dT*dG*dG*d[5mC]*eA*eG*eG) : what is it?
474

Sample ISIS 449708: 3-8-3, 4-8-4, 2-10-2, 3-10-3 or 4-10-4 MOE microwalk gapmer (Table 46) (antisense eA*e[5mC]*eA*dG*dT*dT*dT*d[5mC]*dT*dG*dG*e[5mC]*eA*eG) — what was its MCP-1 level?
409
